- MEASUREMENT_CONDITIONS: 298.15 K; 101.33 kPa; Liquid; Vibrating tube method
Parameter threshold = 1000 kg/m3. Response is 1 when mass density meets or exceeds it, else 0.

Ask: Check if mass density >= 1000 kg/m3 (inclusive). Item: "CCCC[n+]1ccn(C)c1.O=S(=O)([N-]S(=O)(=O)C(F)(F)F)C(F)(F)F"
Reply: 1

Ask: Check if mass density >= 1000 kg/m3 (inclusive). Item: "CCn1cc[n+](C)c1.O=S(=O)([N-]S(=O)(=O)C(F)(F)F)C(F)(F)F"
Reply: 1

Ask: Check if mass density >= 1000 kg/m3 (inclusive). Item: "CCO"
Reply: 0

Ask: Check if mass density >= 1000 kg/m3 (inclusive). Item: "CCCCCC"
Reply: 0

Ask: Check if mass density >= 1000 kg/m3 (inclusive). Item: CCCC[n+]1cccc(C)c1.O=S(=O)([O-])C(F)(F)F [1-butyl-3-methylpyridinium trifluoromethanesulfonate]
Reply: 1

Ask: Check if mass density >= 1000 kg/m3 (inclusive). Item: "CCCC[n+]1cccc(C)c1.O=S(=O)([N-]S(=O)(=O)C(F)(F)F)C(F)(F)F"
Reply: 1

###

- ASSAY_SUMMARY: refractive index (Na D-line) (dimensionless)
- MEASUREMENT_CONDITIONS: 298.15 K; 101.33 kPa; Liquid; Standard Abbe refractometry
So I've got a bunch of compounds here, and I need their refractive index values.
Reply with just the number.

Ask: Answer with the recorded refractive index of "CCn1cc[n+](C)c1.O=S(=O)([N-]S(=O)(=O)C(F)(F)F)C(F)(F)F" only.
Reply: 1.42307

Ask: Answer with the recorded refractive index of "CCCC[n+]1ccn(C)c1.O=S(=O)([N-]S(=O)(=O)C(F)(F)F)C(F)(F)F" only.
Reply: 1.42672

Ask: Answer with the recorded refractive index of CCO [ethanol] only.
Reply: 1.35936

Ask: Answer with the recorded refractive index of CCCCCC [hexane] only.
Reply: 1.37241

Ask: Answer with the recorded refractive index of "CCCC[n+]1cccc(C)c1.O=S(=O)([N-]S(=O)(=O)C(F)(F)F)C(F)(F)F" only.
Reply: 1.44595

Ask: Answer with the recorded refractive index of CCCC[n+]1cccc(C)c1.O=S(=O)([O-])C(F)(F)F [1-butyl-3-methylpyridinium trifluoromethanesulfonate] only.
Reply: 1.46138
